In this section we review reported Test F disease rating (100 = 100% disease control, 0 = no disease control) values for a set of compounds.
tested on: Pseudoperonospora cubensis; assay: Test F: cucumber downy mildew, DMSO/acetone/water test suspension, spray the day before inoculation (disease rating, 100 = 100% disease control); type: in vivo; conditions: DMSO/acetone/water test suspension, sprayed the day before inoculation, unmarked compounds (no asterisk)
endpoint.name: Test F disease rating (100 = 100% disease control, 0 = no disease control)

>>> observed_result("COc1ccc([C@@H](C)NC(=O)c2csc(C3CCN(C(=O)Cc4cccc(Br)c4)CC3)n2)cc1 [compound 279]")
0
>>> observed_result("O=C(NC1CCCc2ccccc21)c1csc(C2CCN(C(=O)Cc3ccccc3Cl)CC2)n1 (stereo not drawn) [compound 266]")
86
>>> observed_result("Cc1ccc(C)c(CC(=O)N2CCC(c3nc(C(=O)N[C@H](C)c4ccccc4)cs3)CC2)c1 [compound 283]")
99
>>> observed_result("CC[C@@H](NC(=O)c1csc(C2CCN(C(=O)Cc3cccc(Br)c3)CC2)n1)c1ccccc1 [compound 278]")
93
>>> observed_result("CC(C)(NC(=O)c1csc(C2CCN(C(=O)Cc3ccccc3Cl)CC2)n1)c1ccccc1 [compound 263]")
0
>>> observed_result("O=C(NCCc1ccccc1)c1csc(C2CCN(C(=O)Cc3ccccc3Cl)CC2)n1 [compound 264]")
93
>>> observed_result("C[C@@H](NC(=O)c1csc(C2CCN(C(=O)Cc3cccc(Br)c3)CC2)n1)c1ccccc1C(F)(F)F [compound 275]")
0
>>> observed_result("COc1ccc(CCNC(=O)c2csc(C3CCN(C(=O)Cc4cc(C)ccc4C)CC3)n2)cc1OC [compound 288]")
95
>>> observed_result("N#CC(NC(=O)c1csc(C2CCN(C(=O)Cc3cccc(Br)c3)CC2)n1)c1ccccc1 (stereo not drawn) [compound 282]")
39

// data source = patent US8586611B2
